Field: Residual rate of oligosaccharides: HPLC purity (%). Provide a value for each of the compounds that follow.
measurementProtocol: Storage stability of Oligosaccharide Crystals (I) and freeze-dried Oligosaccharide (I) powders (residual rate by HPLC)
Assay type: physicochemical
conditionSummary: 105° C. in the atmosphere under ordinary pressure; days that passed: 20
Answer in %, number only, no unit symbol.

Prompt line: Recorded Residual rate of oligosaccharides: HPLC purity (%) of CC(=O)N[C@H]1[C@H](O[C@H]2[C@@H](O)[C@@H](CO)O[C@@H](O[C@H]3[C@H](O)[C@@H](O)C(O)O[C@@H]3CO)[C@@H]2O)O[C@H](CO)[C@@H](O[C@@H]2O[C@H](CO)[C@H](O)[C@H](O)[C@H]2O)[C@@H]1O (stereo partly drawn) [Freeze-dried Galβ1, 4GlcNAc-β1, 3Galβ1, 4Glc powders] [Galβ1,4GlcNAcβ1,3Galβ1,4Glc] , please.
Response line: 90.9

Prompt line: Recorded Residual rate of oligosaccharides: HPLC purity (%) of CC(=O)N[C@H]1[C@H](O[C@H]2[C@@H](O)[C@@H](CO)O[C@@H](O[C@H]3[C@H](O)[C@@H](O)C(O)O[C@@H]3CO)[C@@H]2O)O[C@H](CO)[C@@H](O)[C@@H]1O (stereo partly drawn) [Freeze-dried GlcNAcβ1, 3Gal-β1, 4Glc powders] [GlcNAcβ1,3Galβ1,4Glc] , please.
Response line: 93.8

Prompt line: Recorded Residual rate of oligosaccharides: HPLC purity (%) of CC(=O)N[C@H]1[C@H](O[C@H]2[C@@H](O)[C@@H](CO)O[C@@H](O[C@H]3[C@H](O)[C@@H](O)C(O)O[C@@H]3CO)[C@@H]2O)O[C@H](CO)[C@@H](O[C@@H]2O[C@H](CO)[C@H](O)[C@H](O)[C@H]2O)[C@@H]1O (stereo partly drawn) [Crystals No. 2, Galβ1, 4GlcNAcβ1, 3Galβ1, 4Glc] , please.
Response line: 98.8

Prompt line: Recorded Residual rate of oligosaccharides: HPLC purity (%) of CC(=O)N[C@H]1[C@H](O[C@H]2[C@@H](O)[C@@H](CO)O[C@@H](O[C@H]3[C@H](O)[C@@H](O)C(O)O[C@@H]3CO)[C@@H]2O)O[C@H](CO)[C@@H](O)[C@@H]1O (stereo partly drawn) [Crystals No. 1, GlcNAcβ1, 3Galβ1, 4Glc] , please.
Response line: 98.9

Prompt line: Recorded Residual rate of oligosaccharides: HPLC purity (%) of CC(=O)N[C@H]1[C@H](O[C@H]2[C@@H](O)[C@@H](CO)O[C@@H](O[C@H]3[C@H](O)[C@@H](O)C(O)O[C@@H]3CO)[C@@H]2O)O[C@H](CO)[C@@H](O[C@@H]2O[C@H](CO)[C@H](O)[C@H](O[C@@H]3O[C@H](CO)[C@@H](O)[C@H](O)[C@H]3NC(C)=O)[C@H]2O)[C@@H]1O (stereo partly drawn) [Crystals No. 3] , please.
Response line: 99.3

Prompt line: Recorded Residual rate of oligosaccharides: HPLC purity (%) of CC(=O)N[C@H]1[C@H](O[C@H]2[C@@H](O)[C@@H](CO)O[C@@H](O[C@H]3[C@H](O)[C@@H](O)C(O)O[C@@H]3CO)[C@@H]2O)O[C@H](CO)[C@@H](O[C@@H]2O[C@H](CO)[C@H](O)[C@H](O[C@@H]3O[C@H](CO)[C@@H](O)[C@H](O)[C@H]3NC(C)=O)[C@H]2O)[C@@H]1O (stereo partly drawn) [Freeze-dried GlcNAcβ1, 3Gal-β1, 4GlcNAcβ1, 3Galβ1, 4Glc powd] [GlcNAcβ1,3Galβ1,4GlcNAcβ1,3Galβ1,4Glc] , please.
Response line: 85.2
